# tested-on: Zinc finger protein mex-5 (Caenorhabditis elegans)
# protocol-details: MEX-5/TCR-2 RNA interaction inhibitors, dose response, biochemical, C. elegans, fluorescence polarization (AID 1960)
pEC50: −log10 of the molar value.
Kind request: treat 5 as inclusive, so pEC50 at 5 or higher is Satisfied, anything lower is Not satisfied.

Before answering, review these 4 worked examples.
Cc1c(NC=C2C(=O)NC(=O)N(Cc3ccco3)C2=O)c(=O)n(-c2ccccc2)n1C = Not satisfied
NC(=NNC=c1ccc(=C2C=CC(=O)C(C(=O)O)=C2)o1)N[N+](=O)[O-] = Not satisfied
COc1ccc(N2C(=O)C(=Cc3ccco3)C(=O)NC2=S)cc1 = Satisfied
Cc1sc2ncnc(N=NC(C)c3ccccn3)c2c1C (stereo unspecified) = Not satisfied

We next turn to a different compound, shown below.
Incoming: # check: pEC50 of CCC(=CC=C[C@@H]1C=C[C@@H]2CCC[C@H]2[C@@H]1C(=O)c1ccc[nH]1)[C@@H]1O[C@@H]([C@@H](C)C(=O)O)CC[C@@H]1C is greater than or equal to 5
Outgoing: Satisfied

* * *

Entries and their pEC50
# tested-on: UniProt:Q9XUB2
# Sequence (Q9XUB2 whole entry): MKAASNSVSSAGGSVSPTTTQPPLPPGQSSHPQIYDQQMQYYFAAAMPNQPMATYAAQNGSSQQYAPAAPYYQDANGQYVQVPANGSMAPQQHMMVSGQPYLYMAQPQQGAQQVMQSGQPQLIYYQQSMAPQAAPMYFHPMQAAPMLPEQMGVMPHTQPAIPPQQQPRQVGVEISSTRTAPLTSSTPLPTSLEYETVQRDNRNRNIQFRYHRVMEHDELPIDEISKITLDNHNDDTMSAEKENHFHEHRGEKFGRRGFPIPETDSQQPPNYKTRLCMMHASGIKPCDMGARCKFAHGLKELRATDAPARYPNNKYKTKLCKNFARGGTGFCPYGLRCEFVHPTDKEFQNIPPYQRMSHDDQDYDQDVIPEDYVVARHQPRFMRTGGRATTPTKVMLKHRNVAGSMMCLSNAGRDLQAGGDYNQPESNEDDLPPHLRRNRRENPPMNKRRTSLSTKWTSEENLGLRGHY
# protocol-details: MEX-5/TCR-2 RNA interaction inhibitors, dose response, biochemical, C. elegans, fluorescence polarization (AID 1960)
# reply with the number alone; pEC50 is -log10 of concentration in mol/L

COC1=CC(CN=Nc2[nH]c(=O)nnc2C)C=C([N+](=O)[O-])C1=O (centres undefined) = 4.97

Incoming: Give the reported pEC50 for O=C(N[N-][CH+]c1cc([N+](=O)[O-])ccc1N1CCCC1)c1ccccn1 (system: UniProt:Q9XUB2).
Outgoing: 4.15

Incoming: Give the reported pEC50 for CC(C)c1ccc(C2C(C#N)=C3Sc4ccccc4N3C(=N)C2C#N)cc1 (centres undefined) (system: UniProt:Q9XUB2).
Outgoing: 4.21

Incoming: Give the reported pEC50 for C=CCOc1cccc(C2C(C(=O)c3ccc(C)o3)C(=O)C(=O)N2c2nnc(C)s2)c1 (centres undefined) (system: UniProt:Q9XUB2).
Outgoing: 3.68

* * *

# tested-on: Zinc finger protein mex-5 (Caenorhabditis elegans)
# protocol-details: MEX-5/TCR-2 RNA interaction inhibitors, dose response, biochemical, C. elegans, fluorescence polarization (AID 1960)
EC50 vs 100 µM: less than gives true (1); not less than gives false (0).

COc1cc(C2c3c(-c4cccnc4)n[nH]c3OC(=N)C2C#N)cc(Br)c1O (stereo not given) = false (0)
N#CC1=C2CCOCC2C(c2cccnc2)C(C#N)(C#N)C1=N (stereo not given) = false (0)
O=[N+]([O-])c1ccc(/N=N/c2ncc[nH]2)cc1 = true (1)
O=C1NC(=O)N(CCc2ccccc2)C(=O)C1=CNNC(=O)c1ccccc1O = false (0)
CCOc1cc(C=C2C(=N)N3N=C(S(C)(=O)=O)SC3=NC2=O)ccc1OCCOc1cccc(OC)c1 = false (0)
COc1ccc(C2C3=C(CC(C)CC3=O)OC(=N)C2C#N)c(OC)c1OC (stereo not given) = false (0)
CC(=O)C1C(c2ccccc2)=NC(=O)NC1c1ccc(O)c(O)c1 (stereo not given) = true (1)
COc1ccc(OC)c(NC=C2C(=O)NC(=S)N(Cc3ccccc3)C2=O)c1 = false (0)

Incoming: # TODO verify EC50 < 100 µM strictly for this molecule: CC1=NC(c2ccccc2)C(C#N)(C#N)C(C#N)(C#N)C1 (stereo not given) [SMR000037705]
Outgoing: true (1)

Incoming: # TODO verify EC50 < 100 µM strictly for this molecule: Cc1cc(CN=Nc2ccc([N+](=O)[O-])cn2)c(C)n1-c1ccc(C(=O)O)cc1
Outgoing: false (0)

* * *

Entries and their pEC50
# tested-on: UniProt:Q9XUB2
# protocol-details: MEX-5/TCR-2 RNA interaction inhibitors, dose response, biochemical, C. elegans, fluorescence polarization (AID 1960)
# reply with the number alone; pEC50 is -log10 of concentration in mol/L

CCOc1cc(C2C(C(C)=O)=C(C)OC(=N)C2C#N)cc(Br)c1O (stereo not given) = 4.91
C=CCOc1ccc(C2C(C(=O)c3cccs3)C(=O)C(=O)N2c2nnc(C)s2)cc1 (stereo not given) = 5.51
c1ccc(C2=NNC(c3ccccn3)N=N2)nc1 (stereo not given) = 4.65

Incoming: Give the reported pEC50 for N#CCC(=N)C(C#N)C#N (system: UniProt:Q9XUB2).
Outgoing: 3.77

Incoming: Give the reported pEC50 for O=C(O)c1cc(-c2ccc(C=C3NC(=O)N(c4ccc(Cl)cc4)C3=O)o2)ccc1Cl (system: UniProt:Q9XUB2).
Outgoing: 4.41

Incoming: Give the reported pEC50 for Cn1cc(C=C2C(=O)NC(=O)N(c3ccccc3)C2=O)c2ccccc21 (system: UniProt:Q9XUB2).
Outgoing: 5.36

Incoming: Give the reported pEC50 for COc1ccc(C(C)N=Nc2nc3ccccc3nc2C)cc1OC (stereo not given) (system: UniProt:Q9XUB2).
Outgoing: 4.18

Incoming: Give the reported pEC50 for Cc1[nH]n(C(N)=S)c(=O)c1N=Nc1cccc(C(=O)O)c1 (system: UniProt:Q9XUB2).
Outgoing: 4.64

Incoming: Give the reported pEC50 for COc1cc(C2C3CN(C)CCC3=C(C#N)C(=N)C2(C#N)C#N)ccc1OC(C)C (stereo not given) (system: UniProt:Q9XUB2).
Outgoing: 4.51

Incoming: Give the reported pEC50 for COC(=O)c1[nH]c2cc(OC)c(OC)cc2c1CN=Nc1ccccc1 (system: UniProt:Q9XUB2).
Outgoing: 4.69

* * *

# tested-on: Zinc finger protein mex-5 (Caenorhabditis elegans)
# protocol-details: MEX-5/TCR-2 RNA interaction inhibitors, dose response, biochemical, C. elegans, fluorescence polarization (AID 1960)
readout-label: pEC50
# reply with the number alone; pEC50 is -log10 of concentration in mol/L

Study these solved cases before continuing.
O=C1CC(=O)c2c(O)cc(O)c(O)c2C1=O [4,5,7,8-tetrahydroxy-1,2-naphthoquinone] = 6.05
N#CC1C(=N)C2=C(N3CCCCC3)CCCC2C1(C#N)C#N (centres undefined) = 4.11
Cc1cc(-c2ccccc2)nc(N=NCc2ccc(O)cc2O)n1 [SMR000513422] = 4.27
COc1ccc(N2C(=O)C(=Nc3ccccc3O)C(Cl)C2=O)cc1 (centres undefined) = 4.61

Incoming: Please look up its pEC50: COc1ccccc1-n1c(O)c2n(-c3ccc(C)cc3)[nH]c(C(=O)c3ccccc3)c-2c1=O
Outgoing: 4.84

* * *

Entries and their pEC50
# tested-on: Zinc finger protein mex-5 (Caenorhabditis elegans, UniProt Q9XUB2)
# protocol-details: MEX-5/TCR-2 RNA interaction inhibitors, dose response, biochemical, C. elegans, fluorescence polarization (AID 1960)
# reply with the number alone; pEC50 is -log10 of concentration in mol/L

Study these solved cases before continuing.
O=C(NN=Cc1c(O)ccc2ccccc12)c1cncc(Br)c1 = 3.59
CC(C)(C)OC(=O)N1CCC2=C(C#N)C(=N)C(C#N)(C#N)[C@H](c3cccnc3)[C@H]2C1 = 4.27
Cc1cc(C=C2C(=O)NC(=O)N(c3ccc(Cl)cc3)C2=O)c(C)n1C = 4.32
COc1ccc(C=C2CCCC(C(=O)C(F)(F)F)C2=O)cc1OC (centres undefined) = 3.60
O=C1N=c2ccc(Br)cc2=C1NNc1nnn[nH]1 = 5.29

Incoming: Please look up its pEC50: Cc1ccc(Cl)c2c1NC(=O)/C2=C1/NC(=S)NC1=O
Outgoing: 6.53

Incoming: Please look up its pEC50: O=C(N/N=C/C1C=C(Cl)C=C([N+](=O)[O-])C1=O)c1ccccc1NS(=O)(=O)c1cccs1 (centres undefined)
Outgoing: 5.81

Incoming: Please look up its pEC50: CC1(C)CC(=O)C2Sc3ccccc3N=C2C1 (centres undefined)
Outgoing: 4.23

Incoming: Please look up its pEC50: O=C(Cc1nc2cc(Cl)ccc2oc1=O)c1cccs1
Outgoing: 3.82

Incoming: Please look up its pEC50: CC1CCC2=C(C#N)C(=N)C(C#N)(C#N)C(c3cccs3)C2C1 (centres undefined)
Outgoing: 4.83

Incoming: Please look up its pEC50: COc1ccc(C2CC(=O)C(=CNCCCO)C(=O)C2)cc1 (centres undefined)
Outgoing: 4.42

Incoming: Please look up its pEC50: O=C1c2cccc([N+](=O)[O-])c2C(=O)N1n1c(O)csc1=S
Outgoing: 4.61

Incoming: Please look up its pEC50: COc1cc(CN=Nc2ccc([N+](=O)[O-])cc2)ccc1OCC(=O)Nc1ccc(C)c(C)c1
Outgoing: 3.63

Incoming: Please look up its pEC50: CCCN1CCC2=C(C#N)C(=N)C(C#N)(C#N)C(c3cc(OC)ccc3OC)C2C1 (centres undefined)
Outgoing: 4.59

Incoming: Please look up its pEC50: C=c1cc(O)c(CN(C)C)c2oc(=Cc3ccco3)c(O)c12
Outgoing: 4.40

Incoming: Please look up its pEC50: Cc1cccc(NNC2=c3cc(Br)ccc3=NC2=O)c1
Outgoing: 4.57

Incoming: Please look up its pEC50: C[C@@H]1O[C@@H](O[C@@H]2[C@@H](O)[C@H](OCCc3ccc(O)c(O)c3)O[C@H](CO)[C@H]2OC(=O)/C=C/c2ccc(O)c(O)c2)[C@H](O)[C@H](O)[C@H]1O
Outgoing: 5.01
